The measured values listed here are drawn from the METLIN SMRT retention time set (Domingo-Almenara et al. 2019).

test: gradient 5% acetonitrile 3 min, to 50% in 2 min, to 85% in 15 min, held 3 min, 100 µL/min; details: column: Zorbax Extend-C18 2.1 x 50 mm; eluents: water / acetonitrile, 0.1% formic acid
recordedMetric: RP-LC retention time (s)

# count of solved cases: 6
COc1cccc(NC(=O)NCC(c2cccnc2)c2c[nH]c3ccccc23)c1 (centres undefined) :: 662
Cc1ccc(S(=O)(=O)N2C[C@@H]3C[C@H](NC(=O)c4ccccc4)[C@H]2C3)cc1Cl :: 969
CCOc1ccc(-c2noc(Cc3nc(-c4ccccc4Cl)cs3)n2)cc1 :: 1340
O=C(NC1CC1)c1nc(C(=O)N2CCN(c3ccc(F)cc3)CC2)cs1 :: 788
CCC[C@@H](NC(=O)N1C(=O)C(CC)(CC)[C@@H]1Oc1ccc(C(=O)N2CCN(C)CC2)cc1)c1ccc2c(c1)OCO2 :: 919
CC(=O)N1CCc2nn(CC(=O)Nc3cccc(Br)c3)c(=O)cc2C1 :: 666

[P] CCn1c(=O)n(CCN2CCOCC2)c(=O)c2cnc(-c3ccc(Cl)cc3)nc21
[Q] CCCn1c(=O)sc2cc(S(=O)(=O)N3CCC(C(=O)Nc4ccc(C)c(C)c4)CC3)ccc21
Between P and Q , which one shows the smaller RP-LC retention time number? Please indicate the selected item by its label. P

----------
assay: gradient 5% acetonitrile 3 min, to 50% in 2 min, to 85% in 15 min, held 3 min, 100 µL/min; conditions: column: Zorbax Extend-C18 2.1 x 50 mm; eluents: water / acetonitrile, 0.1% formic acid
recordedMetric: RP-LC retention time (s)

# count of solved cases: 2
Cn1c(C(=O)NCc2ccccc2Cl)cc2sc(Cl)cc21 :: 1260
O=C(COc1ccc(F)cc1)N1CCN(c2ccc(=O)n(-c3ccc(Cl)cc3)n2)CC1 :: 874

[1] Cc1ccc(S(=O)(=O)N2CCCN(c3ccc(=O)n(-c4ccc(F)cc4)n3)CC2)c(C)c1
[2] O=C(CN1C(=O)CCSc2ccccc21)NCCCN1CCN(Cc2ccccc2)CC1
Short answer wanted: higher RP-LC retention time, 1 or 2 ? Please indicate the selected item by its label. 1

[a] O=C(NCc1c(F)cccc1F)c1csc(Nc2ncccn2)n1
[b] CCOc1ccccc1-c1nc(-c2ccc3nnn(CC)c3c2)no1
Short answer wanted: higher RP-LC retention time, a or b ? Please indicate the selected item by its label. b
(b: 1110 s, a: 695 s)

----------
assay: gradient 5% acetonitrile 3 min, to 50% in 2 min, to 85% in 15 min, held 3 min, 100 µL/min; conditions: column: Zorbax Extend-C18 2.1 x 50 mm; eluents: water / acetonitrile, 0.1% formic acid
recordedMetric: RP-LC retention time (s)

CCCNC(=O)C1CCN(c2ccc(SCC(=O)Nc3cccc(C(=O)OCC)c3)nn2)CC1 :: 675
Cc1nc(-c2csc(S(=O)(=O)N3CCCC(C(=O)Nc4ccc5c(c4)OCCO5)C3)c2)no1 (centres undefined) :: 880
COc1ccc(-c2cc3n(n2)CCCN(C(=O)c2cccn2C)C3)cc1 :: 807
COc1ccc(Cc2nc3nccc(-c4ccc(F)cc4)n3n2)cc1 :: 882
O=C(NCCCN1CCOCC1)c1cc(-c2ccccn2)nc2ccccc12 :: 592

[1] CCN1CCN(CCCNC(=O)C2CCCN(c3nn4c(=O)c5c(nc4s3)CCCC5)C2)CC1 (centres undefined)
[2] CCOCCCNC(=O)c1ccc(Oc2nccnc2N2CCC(C)CC2)cc1
Between 1 and 2 , which one shows the smaller RP-LC retention time number? Please indicate the selected item by its label. 1

----------
experiment: gradient 5% acetonitrile 3 min, to 50% in 2 min, to 85% in 15 min, held 3 min, 100 µL/min; conditions: column: Zorbax Extend-C18 2.1 x 50 mm; eluents: water / acetonitrile, 0.1% formic acid
recordedMetric: RP-LC retention time (s)

# count of solved cases: 9
CCOc1ccc(NC(=O)N2CCCC(Cn3c(C4CC4)nc4cccnc43)C2)cc1 (stereo unspecified) :: 689
Cn1cc(C(=O)N2CCN(c3ccccn3)CC2)c2cccnc21 :: 566
CCOc1ccc(CNC(=O)CC2CCN(C(=O)c3[nH]c(C)c(C(=O)OC)c3C)CC2)cc1 :: 750
Cc1cc(NS(=O)(=O)c2cc3n(c2)CCCNC3=O)ccc1F :: 671
CC(C)CN1C(=O)c2cccn2CC1C(=O)NCC1CCCCC1 (stereo unspecified) :: 828
COC(=O)c1c(-c2ccc(F)cc2)noc1NCc1ccccn1 :: 771
COc1cccc(CNC(=O)c2cc3ccncc3n2C)c1OC :: 602
Cc1ccc(S(=O)(=O)NCC2CN(CC3CC3)CC23CCCCC3)c(C)c1 (stereo unspecified) :: 767
COc1ccc(-c2cn3c(CC(=O)NC4CCCC4)csc3n2)cc1OC :: 660

[1] Cc1noc([C@@H]2CN(Cc3cc(Cl)ccc3F)C[C@H]2CO)n1
[2] CCN(CC)S(=O)(=O)c1ccc(Cl)c(-c2nnc(-c3ccccc3OC)o2)c1
Between 1 and 2 , which one shows the smaller RP-LC retention time number? Please indicate the selected item by its label. 1
(1: 594 s, 2: 1020 s)

----------
assay: gradient 5% acetonitrile 3 min, to 50% in 2 min, to 85% in 15 min, held 3 min, 100 µL/min; conditions: column: Zorbax Extend-C18 2.1 x 50 mm; eluents: water / acetonitrile, 0.1% formic acid
recordedMetric: RP-LC retention time (s)

# count of solved cases: 6
CCc1cccc(NC(=O)N2C[C@@H](F)C[C@H]2C(=O)N2CCOCC2)c1 :: 664
CN(C)S(=O)(=O)c1ccc(C(=O)Nc2nc(-c3coc4ccccc34)cs2)cc1 :: 1030
O=C(c1ccoc1)N1CC(N(Cc2ccncc2)CC2CC2)C1 :: 593
COc1cc(C)c(Cl)cc1S(=O)(=O)N1CCN(C(=O)c2ccco2)CC1 :: 797
O=C(Nc1ccc(Cl)c(N2CCCS2(=O)=O)c1)c1ccno1 :: 676
Cn1cc(C(=O)NC2CCCCC2)c2nn(-c3ccccc3)c(=O)c-2c1 :: 678

[1] O=C(NCc1ccc(Cl)cc1)c1cccn1-c1cccnc1
[2] Cc1ccc(C)c(CS(=O)(=O)N2CCc3nc(-c4ccc(Cl)cc4)ncc3C2)c1
Between 1 and 2 , which one shows the smaller RP-LC retention time number? Please indicate the selected item by its label. 1

----------
test: gradient 5% acetonitrile 3 min, to 50% in 2 min, to 85% in 15 min, held 3 min, 100 µL/min; conditions: column: Zorbax Extend-C18 2.1 x 50 mm; eluents: water / acetonitrile, 0.1% formic acid
recordedMetric: RP-LC retention time (s)

CSc1cccc(NC(=O)Cn2c(C)nc3c(c2=O)CN(Cc2ccccc2)CC3)c1 :: 587
CC(C)NC(=O)c1ccc(OCC2CCCN2C(=O)Cc2cccs2)cc1 (centres undefined) :: 807
Cc1cccc(N2CCN(C(=O)Cn3c(=O)c4nncn4c4ncccc43)CC2)c1C :: 791
COc1ccc(C(=O)N2CCN3CCS(=O)(=O)N(C4CC4)C(=O)C3C2)cc1 (centres undefined) :: 715

----------
assay: gradient 5% acetonitrile 3 min, to 50% in 2 min, to 85% in 15 min, held 3 min, 100 µL/min; conditions: column: Zorbax Extend-C18 2.1 x 50 mm; eluents: water / acetonitrile, 0.1% formic acid
recordedMetric: RP-LC retention time (s)

O=C(c1cc(C2CC2)[nH]n1)N1CCCCC1 :: 661
CCN(CC)CCNC(=O)c1cc(S(=O)(=O)N2CCCCCC2)ccc1Cl :: 656
O=C(C1=CN(c2ccccc2F)c2cc(Cl)ccc2S1(=O)=O)N1CCCC1 :: 842
CN1CCc2ccccc2C1Cc1ccccc1NC(=O)c1sc2ccccc2c1Cl (stereo not given) :: 852
O=C(c1ccc2ccccc2n1)N1CCC(Oc2ccccc2)C1 (stereo not given) :: 937

----------
experiment: gradient 5% acetonitrile 3 min, to 50% in 2 min, to 85% in 15 min, held 3 min, 100 µL/min; conditions: column: Zorbax Extend-C18 2.1 x 50 mm; eluents: water / acetonitrile, 0.1% formic acid
recordedMetric: RP-LC retention time (s)

# count of solved cases: 6
COc1ccccc1NC(=O)N1CCc2nc(-c3ccc(Cl)cc3)ncc2C1 :: 948
Cc1ccc(OCc2nc(C3CCNC3)no2)cc1 (stereo not drawn) :: 641
Cc1ccc(-c2csc(Nc3ccc(Br)cn3)n2)cc1C :: 1340
NC(=O)C1CCN(C(=O)Cn2c(-c3cccs3)cc3ccccc32)CC1 :: 744
Cc1cc(OCC(=O)Nc2cccc(Br)c2)nc(N2CCCC2)n1 :: 682
O=C1CCCN1Cc1noc(-c2ccccc2)n1 :: 731

[I] Cn1nnc2c(Nc3ccc(Br)cc3F)ncnc21
[II] Cc1c(-c2cc(NS(=O)(=O)c3ccccc3Cl)n(C)n2)sc2ccc(Cl)cc12
Short answer wanted: higher RP-LC retention time, I or II ? Please indicate the selected item by its label. II
